test_context: 0.1N HCl, 1.0% DMSO, 24-hour incubation at ambient temperature, maximum theoretical 100 μM; first value of the cell
property: pH 2 solubility (μM)

Would you please look over these solved cases?
compound	pH 2 solubility [μM]
CN(C(=O)N(c1nn(CC(F)(F)F)c2c(-c3ccc(C#CC(C)(C)S(C)(=O)=O)nc3[C@H](Cc3cc(F)cc(F)c3)NC(=O)Cn3nc(C(F)(F)F)c4c3C(F)(F)[C@@H]3C[C@H]43)ccc(Cl)c12)S(C)(=O)=O)[C@@H](CC(=O)O)C(=O)O [Compound 71]	1
C[C@@H](N)C(=O)OCN(c1nn(CC(F)(F)F)c2c(-c3ccc(C#CC(C)(C)S(C)(=O)=O)nc3[C@H](Cc3cc(F)cc(F)c3)NC(=O)Cn3nc(C(F)(F)F)c4c3C(F)(F)[C@@H]3C[C@H]43)ccc(Cl)c12)S(C)(=O)=O [Compound 26]	23
CC(C)(C#Cc1ccc(-c2ccc(Cl)c3c(N(C(=O)OCCC(=O)O)S(C)(=O)=O)nn(CC(F)(F)F)c23)c([C@H](Cc2cc(F)cc(F)c2)NC(=O)Cn2nc(C(F)(F)F)c3c2C(F)(F)[C@@H]2C[C@H]32)n1)S(C)(=O)=O [Compound 121]	1
CN(CCO)C(=O)N(c1nn(CC(F)(F)F)c2c(-c3ccc(C#CC(C)(C)S(C)(=O)=O)nc3[C@H](Cc3cc(F)cc(F)c3)NC(=O)Cn3nc(C(F)(F)F)c4c3C(F)(F)[C@@H]3C[C@H]43)ccc(Cl)c12)S(C)(=O)=O [Compound 50]	1
CC(C)(C#Cc1ccc(-c2ccc(Cl)c3c(N(C(=O)N[C@@H](CCC(=O)O)C(=O)O)S(C)(=O)=O)nn(CC(F)(F)F)c23)c([C@H](Cc2cc(F)cc(F)c2)NC(=O)Cn2nc(C(F)(F)F)c3c2C(F)(F)[C@@H]2C[C@H]32)n1)S(C)(=O)=O [Compound 68]	1
CN(CC(=O)OCOP(=O)(O)O)C(=O)N(c1nn(CC(F)(F)F)c2c(-c3ccc(C#CC(C)(C)S(C)(=O)=O)nc3[C@H](Cc3cc(F)cc(F)c3)NC(=O)Cn3nc(C(F)(F)F)c4c3C(F)(F)[C@@H]3C[C@H]43)ccc(Cl)c12)S(C)(=O)=O [Compound 84]	5
CC(C)(C#Cc1ccc(-c2ccc(Cl)c3c(N(C(=O)OCOP(=O)(O)O)S(C)(=O)=O)nn(CC(F)(F)F)c23)c([C@H](Cc2cc(F)cc(F)c2)NC(=O)Cn2nc(C(F)(F)F)c3c2C(F)(F)[C@@H]2C[C@H]32)n1)S(C)(=O)=O [Compound 90]	1
CC(C)(C#Cc1ccc(-c2ccc(Cl)c3c(N(C(=O)NC(CP(=O)(O)O)C(=O)O)S(C)(=O)=O)nn(CC(F)(F)F)c23)c([C@H](Cc2cc(F)cc(F)c2)NC(=O)Cn2nc(C(F)(F)F)c3c2C(F)(F)[C@@H]2C[C@H]32)n1)S(C)(=O)=O (stereo partly drawn) [Compound 56]	3

I: CC(C)(C#Cc1ccc(-c2ccc(Cl)c3c(N(C(=O)NCCNC(=O)C(=O)O)S(C)(=O)=O)nn(CC(F)(F)F)c23)c([C@H](Cc2cc(F)cc(F)c2)NC(=O)Cn2nc(C(F)(F)F)c3c2C(F)(F)[C@@H]2C[C@H]32)n1)S(C)(=O)=O [Compound 77]
II: CN(CCN(CCC(=O)O)C(=O)OCOP(=O)(O)O)C(=O)N(c1nn(CC(F)(F)F)c2c(-c3ccc(C#CC(C)(C)S(C)(=O)=O)nc3[C@H](Cc3cc(F)cc(F)c3)NC(=O)Cn3nc(C(F)(F)F)c4c3C(F)(F)[C@@H]3C[C@H]43)ccc(Cl)c12)S(C)(=O)=O [Compound 86]
III: CC(C)(CNC(=O)N(c1nn(CC(F)(F)F)c2c(-c3ccc(C#CC(C)(C)S(C)(=O)=O)nc3[C@H](Cc3cc(F)cc(F)c3)NC(=O)Cn3nc(C(F)(F)F)c4c3C(F)(F)[C@@H]3C[C@H]43)ccc(Cl)c12)S(C)(=O)=O)OP(=O)(O)O [Compound 33]
In: Reorder the items by pH 2 solubility, least to greatest. Give the labels in the order specified.
Out: II, III, I
